Every entry's value here was drawn from ChEMBL document CHEMBL2417407.

Field: fold change (FC). Provide a value for each of the molecules that follow.
System: THP-1
experiment notes: Cytotoxicity against human THP1 cells assessed as cell viability at 10 uM after 24 hrs by CCK-8 assay relative to untreated control
Type: cell-based
measurement setup: thp-1, 24 h
Reply briefly: the number, and no unit.

Value of measured fold change (FC) for the entry c1ccc2c(c1)CCc1ccccc1-2 : 1.5

The molecule COc1ccc2c(c1O)CCc1cc(O)cc(OC)c1-2 showed fold change (FC) equal to 1.3

// field: fold change (FC); key: COc1cc(O)c2c(c1)CCc1c-2ccc(OC)c1O ; value = 1.4

So for COc1cc(/C=C/C(=O)CC(=O)/C=C/c2ccc(O)c(OC)c2)ccc1O , the logged fold change (FC) turned out to be 1.5

Form field fold change (FC), entry c1ccc2c(c1)ccc1ccccc12 : 1.3

The measured fold change (FC) associated with COc1cc2ccc3cc(O)ccc3c2c(OC)c1O reads 1.3

Lab note: measured fold change (FC) of COc1cc2c(c(OC)c1O)-c1ccc(O)cc1CC2 was 1.4
